The reported measurements were obtained from patent US20120207760A1.

Reported FACS M2-HK MFI is given for each of the following binders.
target.system: M2 protein of influenza A/Hong Kong/483/97 (H5N1) (Influenza A virus A/Hong Kong/483/97)
Give your result in MFI as a bare value.

1) 3252_C13 (antibody, V domains shown) VH: QVQLQESGPGLVKPSETLSLTCTVSGASISSDYWSWIRLPPGKGLEWIGYIYNRGSTKYTPSLKSRVTISLDTAENQFSLRLRSVTAADTAIYYCARHVGGHTYGIDYWGQGTLVTVSS VL: DIQMTQSPSSLSASVGDRVTITCRASQSISNYLNWYQHKPGEAPKLLNYAASSLQSGVPSRFSASGSGTDFTLTISSLQPEDFATYYCQQSYNTPITFGQGTRLEIK; 449

Now take the following binder into account.
What value of measured FACS M2-HK MFI is listed for 3420_I23 (antibody, V domains shown) VH: QVQLQESGPGLVKPSETLSVTCKVSGDSISSYSWSWIRQPPGKGLEWVGYLYYSGSTKYNPSLKSRTTISVDTSTNQLSLKLSFVTAADTAVYFCARTGSESTTGYGMDVWGQGTTVTVSS VL: DIQMTQSPSSLSASVGDRVTITCRASQSISTYLNWYQQKPGKAPKLLIYAASSLHSGVPSRFSGSGSGTDFALTISSLQPEDFATYYCQQSYSPPITFGQGTRLEIK ?
112
